- System: MS2 coat protein
- Assay Procedure: apparent Kd, MS2 coat protein; higher = weaker binding; RNA-MaP array; tryptophan 2.4 mM where present
- Condition Set: designed as: OFF switch for tryptophan; no ligand
Endpoint: apparent Kd (nM)
Answers are plain numbers, in nM.

Below, each entry is followed by its recorded apparent Kd result.
>>> df
                             query_sequence     endpoint  reading_unit  observed
0  CCUAUGCAGUCGGCCGCCACUGAGUCCUCAAUAAUAAAUUAAUAAACAUGAGGAUCACCCAUGUACAGGACCGGGACUGUAUAGG  apparent Kd            nM       314
1  AGAUUCGACACGGCCGCCACUCGUGGUGGAUUACCUAGUGUCGAACAUGAGGAUCACCCAUGUACGAGGACCGGGUGUUGAGUCU  apparent Kd            nM        75
2  UUCACAUGAUCUGAAUAUACAGAAAAGAAACGAGGACCGGUACGGCCGCCACUCGUGCCGGAAACAUGAGGAUCACCCAUGUGUU  apparent Kd            nM      24.2

# batch size: 2; output apparent Kd per entry
1. GGAGCUACGUCGGCCGCCACUAGCGGAUAUUACGUGUACAUGAGGAUCACCCAUGUAAUACGGUUUAGGACCGGGACGUAGCUCC
2. CUAUAAGUACCGGUCCUCAGAUCCUCAUGACGAGGACCGGUACGGCCGCCACUCGAAACAUGAGGAUCACCCAUGUAAUAAUACC

# output
17.3
35.5

# batch size: 5; output apparent Kd per entry
1. AAUGUAUGGCACAUGAGGAUCACCCAUGUGCGAGGACCGGUACGGCCGCCACUCGGUCGUGGGUUCUUAUUACUAUACAUUAAUG
2. GUUUAAAGGUCGGCCGCCACUGUAGGAUGUGUUCUUUCACAUGAGGAUCACCCAUGUUGUUAUUAUAGGACCGGGAUUUUAGGAC
3. UAUAUAUAUCACGAACUGUGGUGUAUGUCUCGAGGACCGGUACGGCCGCCACUCGCGCGGCCUCACAUGAGGAUCACCCAUGUCC
4. GUGUUAUGGUCGGCCGCCACUCUGACAUGAGGAUCACCCAUGUUGUACAUGAGGAUCACCCAUGUGAGGACCGGGACACGUGCGA
5. UUAGUAACGACGGCCGCCACUGGAUAUGAACAUGAGGAUCACCCAUGUAGAGAUCCUAGAAUAAACAGGACCGGGUCUGAUAAUA

# output
1. 10.7
2. 27.1
3. 89.2
4. 401
5. 17.2

###

Provide the reported apparent Kd of each item.
- Test system: MS2 coat protein
- Assay Procedure: apparent Kd, MS2 coat protein; higher = weaker binding; RNA-MaP array
- Condition Set: ligand present: theophylline; designed as: OFF switch for theophylline
Give bare numbers, in nM.

Below, each entry is followed by its recorded apparent Kd result.
In [3]: df
Out[3]:
                             query_sequence  observed
0  CUGACGUAGGAAGAUAUCUGGAACAAGGAUACCAGUAAACCAACAUACCCUUGGCAGCCUAAAACAUGAGGAUCACCCAUGUAAU      14.6
1  CAUGAGAGAUUGUUUUGUGACUCUAACGAUACCAGAGUAGGACUUCUCCCUUGGCAGCGUGUGACAUGAGGAUCACCCAUGUCCA      11.7
2  AAUGAUGCGAUCUACAGUCGAGGAUUCGAUACCAGCAACGGGCGUUGCCCUUGGCAGCGAGCUACAUGAGGAUCACCCAUGUUAC      34.7

We now examine a further sequence.
# input Give reported apparent Kd value for "GGUUGGUCGCAGGAUACCAGUCCACCCGUGAUACUGCUAAACAUGAGGAUCACCCAUGUCGACCCUUGGCAGCCUGUCCAUGCGU"
# output 124

Data provenance is the EternaBench riboswitch data.
